- measured on: MDR1a (multidrug resistance protein 1a) (Rattus norvegicus, UniProt Q6PSM0)
- Sequence (Q6PSM0 whole entry): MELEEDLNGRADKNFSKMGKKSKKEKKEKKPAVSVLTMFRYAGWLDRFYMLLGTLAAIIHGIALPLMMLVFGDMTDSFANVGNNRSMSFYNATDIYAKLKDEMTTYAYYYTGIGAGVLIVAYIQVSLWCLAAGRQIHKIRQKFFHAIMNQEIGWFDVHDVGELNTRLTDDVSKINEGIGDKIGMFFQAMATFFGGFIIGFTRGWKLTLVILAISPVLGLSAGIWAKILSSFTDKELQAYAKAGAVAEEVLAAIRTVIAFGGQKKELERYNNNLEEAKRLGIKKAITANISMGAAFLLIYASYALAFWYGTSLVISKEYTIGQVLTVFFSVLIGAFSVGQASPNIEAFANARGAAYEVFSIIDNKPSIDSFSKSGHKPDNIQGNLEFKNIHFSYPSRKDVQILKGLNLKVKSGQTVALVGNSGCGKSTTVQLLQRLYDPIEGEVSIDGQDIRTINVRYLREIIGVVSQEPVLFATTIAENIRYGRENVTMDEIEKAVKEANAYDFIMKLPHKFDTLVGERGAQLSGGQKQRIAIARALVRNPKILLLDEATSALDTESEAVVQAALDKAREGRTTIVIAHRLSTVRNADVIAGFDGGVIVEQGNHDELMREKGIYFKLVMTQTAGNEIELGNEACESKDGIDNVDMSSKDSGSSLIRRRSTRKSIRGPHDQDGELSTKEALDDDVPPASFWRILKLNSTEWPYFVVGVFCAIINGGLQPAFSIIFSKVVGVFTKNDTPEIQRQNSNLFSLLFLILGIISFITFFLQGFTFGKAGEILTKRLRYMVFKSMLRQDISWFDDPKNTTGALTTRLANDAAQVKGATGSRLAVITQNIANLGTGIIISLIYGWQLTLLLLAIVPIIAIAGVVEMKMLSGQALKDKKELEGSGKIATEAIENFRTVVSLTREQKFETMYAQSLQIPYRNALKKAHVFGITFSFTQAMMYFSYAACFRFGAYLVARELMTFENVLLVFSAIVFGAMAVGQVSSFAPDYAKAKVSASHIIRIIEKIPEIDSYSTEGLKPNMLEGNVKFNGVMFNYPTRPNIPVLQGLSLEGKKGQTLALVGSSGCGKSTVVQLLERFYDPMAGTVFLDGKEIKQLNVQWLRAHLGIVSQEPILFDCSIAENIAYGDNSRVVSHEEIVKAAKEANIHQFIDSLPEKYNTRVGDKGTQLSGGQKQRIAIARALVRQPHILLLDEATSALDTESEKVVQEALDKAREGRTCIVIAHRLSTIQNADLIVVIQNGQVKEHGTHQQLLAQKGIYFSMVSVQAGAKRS
- assay info: Efflux ratio of the compound assessed as ratio of rat MDR1a-mediated permeability from basolateral to apical over apical to basolateral side of drug transport
- Type: ADME
- experimental context: not told
measured parameter: efflux ratio

[a] N#Cc1ccc(N2CCN(Cc3cc(C(=O)O)c(=O)n4ccccc34)CC2)cc1
[b] O=C(O)c1cc(CN2CCN(c3ccc(C(F)(F)F)cc3)CC2)c2ccccn2c1=O
[c] O=C(O)c1cc(CN2CCN(c3ccc(Br)cc3)CC2)c2ccccn2c1=O
Lab note: efflux ratio ranking, ascending, for the listed molecules. Please list each label once, in the requested order. c, b, a
(c: 0.6, b: 1.3, a: 1.9)

###

- Test system: Plasma
- assay info: Plasma concentration in Sprague-Dawley rat at 10 mg/kg, po
- Format: ADME, organism-based
- Set-up: dose 10 mg/kg, route oral
- experimental context: in vivo
measured parameter: concentration (nM)

INSERT INTO results (cpd_smiles, result_number) VALUES
  ('O=C(O)c1cc(CN2CCN(c3ccncc3)CC2)c2ccccn2c1=O', 2070),
  ('O=C(O)c1cc(CN2CCN(c3ccc(C(F)(F)F)cc3)CC2)c2ccccn2c1=O', 1140);

[a] N#Cc1ccc(N2CCN(Cc3cc(C(=O)O)c(=O)n4ccccc34)CC2)cc1
[b] O=C(O)c1cc(CN2CCN(c3ccc(Br)cc3)CC2)c2ccccn2c1=O
Pick the one with the larger concentration: a vs b Give the chosen item's label as your response. b
(b: 3650 nM, a: 1500 nM)

###

- assay info: Oral bioavailability in Sprague-Dawley rat at 10 mg/kg
- Assay type: ADME, organism-based
- experimental context: in vivo
measured parameter: bioavailability (%)
# value in %; strip the unit string

Dear colleague, I am looking for the recorded bioavailability of the following compound: `N#Cc1ccc(N2CCN(Cc3cc(C(=O)O)c(=O)n4ccccc34)CC2)cc1` 23

###

- measured on: Muscarinic acetylcholine receptor M1 (Homo sapiens) (UniProt P11229)
- Sequence (P11229 whole entry): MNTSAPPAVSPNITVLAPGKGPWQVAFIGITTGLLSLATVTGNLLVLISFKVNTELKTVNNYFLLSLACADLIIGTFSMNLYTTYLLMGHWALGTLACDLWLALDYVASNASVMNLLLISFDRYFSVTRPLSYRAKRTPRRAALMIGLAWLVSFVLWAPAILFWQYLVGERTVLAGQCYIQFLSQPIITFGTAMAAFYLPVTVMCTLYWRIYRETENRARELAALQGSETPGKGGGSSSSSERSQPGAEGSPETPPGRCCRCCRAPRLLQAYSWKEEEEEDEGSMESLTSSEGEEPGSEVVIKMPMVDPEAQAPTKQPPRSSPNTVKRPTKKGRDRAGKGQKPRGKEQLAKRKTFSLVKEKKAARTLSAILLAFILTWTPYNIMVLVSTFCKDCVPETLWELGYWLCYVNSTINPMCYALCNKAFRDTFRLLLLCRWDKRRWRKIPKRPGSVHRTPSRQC
- assay info: Positive allosteric modulation of human muscarinic M1 receptor expressed in CHO-NFAT cells assessed as potentiation of acetylcholine-induced calcium flux after 1 hr by FLIPR assay relative to control
- Format: functional, cell-based
- Design: concentration or dose not given beside the values
measured parameter: Activity (%)

INSERT INTO results (cpd_smiles, measured_on, u, result_number) VALUES
  ('O=C(O)c1cc(CN2CCN(c3ccc(C(F)(F)F)cc3)CC2)c2ccccn2c1=O', 'Muscarinic acetylcholine receptor M1 (Homo sapiens) (UniProt P11229)', '%', 67),
  ('O=C(O)c1cc(Cc2ccccc2)c2ccccn2c1=O', 'Muscarinic acetylcholine receptor M1 (Homo sapiens) (UniProt P11229)', '%', 81),
  ('O=C(O)c1cc(CN2CCN(c3ccc(Br)cc3)CC2)c2ccccn2c1=O', 'Muscarinic acetylcholine receptor M1 (Homo sapiens) (UniProt P11229)', '%', 77),
  ('O=C(O)c1cc(CN2CCC(c3ccccc3)CC2)c2ccccn2c1=O', 'Muscarinic acetylcholine receptor M1 (Homo sapiens) (UniProt P11229)', '%', 58),
  ('O=C(O)c1cc(Cc2ccc(-c3ccccn3)cc2)c2ccccn2c1=O', 'Muscarinic acetylcholine receptor M1 (Homo sapiens) (UniProt P11229)', '%', 78),
  ('O=C(O)c1cc(CN2CCN(c3ccccc3)C(=O)C2)c2ccccn2c1=O', 'Muscarinic acetylcholine receptor M1 (Homo sapiens) (UniProt P11229)', '%', 89),
  ('O=C(O)c1cc(CN2CCCCC2)c2ccccn2c1=O', 'Muscarinic acetylcholine receptor M1 (Homo sapiens) (UniProt P11229)', '%', 87),
  ('O=C(O)c1cc(CN2CCN(c3ccncc3)CC2)c2ccccn2c1=O', 'Muscarinic acetylcholine receptor M1 (Homo sapiens) (UniProt P11229)', '%', 86);

[1] O=C(O)c1cc(CN2CCN(c3ccccc3)CC2)c2ccccn2c1=O
[2] O=C(O)c1cc(Cc2ccc(Cl)cc2)c2ccccn2c1=O
Of 1 and 2 , which shows the smaller Activity value? // respond with label for picked entry 1

Data provenance is ChEMBL document CHEMBL2040827.
